# key: entry, value: optical density
# system tested: human Fc (human)
# measurement notes: ELISA, negative control
Answer with a number only, understood to be in OD.

For orientation, consider the following solved cases.
binder: 371_H10 (antibody, V domains shown) VH: EVQLLESGGGLVQPGGSLRLSCAASGFTFSSYSMNWVRQAPGKGLEWVAGINYNSGYKSYADSVKGRFTISRDNSKNTLYLQMNSLRAEDTAVYYCARGANWHDTHLDYWGQGTLVTVSS VL: DIQMTQSPSSLSASVGDRVTITCRASQSISTYLNWYQQKPGKAPKLLIYAATSRHSGVPSRFSGSGSGTDFTLTISSLQPEDFATYYCQQSYENPLTFGGGTKVEIK
optical density, OD: 0.358
//
binder: 365_G04 (antibody, V domains shown) VH: EVQLLESGGGLVQPGGSLRLSCAASGFTFDSYSMNWVRQAPGKGLEWVAGINYNGGYTGYADSVKGRFTISRDNSKNTLYLQMNSLRAEDTAVYYCARGANWHDTHLDYWGQGTLVTVSS VL: DIQMTQSPSSLSASVGDRVTITCRASQSIVSYVNWYQQKPGKAPKLVIYAATSLASGVPSRFSGSGSGTDFTLTISSLQPEDFATYYCQQSYDTPLTFGGGTKVEIK
optical density, OD: 0.295
//
binder: 370_H05 (antibody, V domains shown) VH: EVQLLESGGGLVQPGGSLRLSCAASGFTFSSYGMHWVRQAPGKGLEWVSNINYNGGYTSYADSVKGRFTISRDNSKNTLYLQMNSLRAEDTAVYYCARAATWHDTHLDYWGQGTLVTVSS VL: DIQMTQSPSSLSASVGDRVTITCRASQSILSYLNWYQQKPGKAPKLLIYAASSLQSGVPSRFSGSGSGTDFTLTISSLQPEDFATYYCQQSDSLPLTFGGGTKVEIK
optical density, OD: 0.364

Form field: reported optical density of 374_G02 (antibody, V domains shown) VH: EVQLLESGGGLVQPGGSLRLSCAASGFTFDSYSMNWVRQAPGKGLEWVSGINYNSGYTSYADSVKGRFTISRDNSKNTLYLQMNSLRAEDTAVYYCARSATWHDTHLDYWGQGTLVTVSS VL: DIQMTQSPSSLSASVGDRVTITCRASQSILTYLNWYQQKPGKAPKLLIYAASSLQSGVPSRFSGSGSGTDFTLTISSLQPEDFATYYCQQSYDTPLTFGGGTKVEIK
0.175

Form field: reported optical density of 365_D03 (antibody, V domains shown) VH: EVQLLESGGGLVQPGGSLRLSCAASGFTFDDYSMHWVRQAPGKGLEWVASINYNGGYKSYADSVKGRFTISRDNSKNTLYLQMNSLRAEDTAVYYCARAATWHDTHLDYWGQGTLVTVSS VL: DIQMTQSPSSLSASVGDRVTITCRASQSIVSYLNWYQQKPGKAPKLVIYAATSRASGVPSRFSGSGSGTDFTLTISSLQPEDFATYYCQQSYDSPLTFGGGTKVEIK
0.346
